Listing of entries alongside the reported TGI.
Test system: UO-31 renal
assayComment: NCI tumour cell line growth inhibition, 48 h

> print(dat)
                                   molecule  measuredvalue
1  C(=Nc1ccc(-c2nc3ccccc3[nH]2)cc1)c1ccc[nH]1       > 100 µM
2  O=C(c1ccccc1)n1cc(-c2ccccc2)c2c(=O)[nH]cnc21       > 100 µM

[Q] Reported TGI, molecule Cc1cn(C2C=CC(CO)O2)c(=O)[nH]c1=O (stereo unspecified) : ____
[A] > 1000 µM

[Q] Reported TGI for O=[N+]([O-])c1ccc(N/N=C/CC(O)(C(F)(F)F)C(F)(F)F)c([N+](=O)[O-])c1 : what is it?
[A] > 10 µM

[Q] Consider the molecule shown here: Cc1cc(Nc2nc(-c3cccnc3)nc3ccccc23)n[nH]1 What is its recorded TGI?
[A] > 100 µM

[Q] Query (molecule): C[n+]1c(-c2ccc(/C=N/Nc3ccnc(N/N=C/c4ccc(-c5cn6ccsc6[n+]5C)cc4)n3)cc2)cn2ccsc21 ; field requested: TGI
[A] > 100 µM

====

Test system: SK-MEL-5 melanoma
assayComment: NCI tumour cell line growth inhibition, 48 h
observedProperty: TGI (µM)
Numbers only; they are read as µM.

> print(dat)
                                   molecule  measuredvalue
1  O=c1oc2ccc([N+](=O)[O-])cc2c(Nc2ccc3c(c2)Sc2ccccc2O3)c1[N+](=O)[O-]           41.1

[Q] What value of TGI has been reported for the following molecule? CCCCCCCCCCCCCCCCNCCCN(C)CCCN
[A] 31.4

[Q] Can you share its TGI? I mean this molecule: Brc1ccc2c3c1[C@H]1O[C@H]1c1cccc(c1-3)[C@@H]1O[C@H]21
[A] 30.2

[Q] Which measured TGI value corresponds to CC12CC3OC(=O)C1COC14OC5(C2C1=O)C(O)(CCC1C4CC2OC24CC=CC(=O)C14C)C(=O)OC35C (centres undefined) ?
[A] 11.5

====

The reader will find reported log10 TGI values listed item by item below.
Test system: SF-539 CNS
assayComment: NCI tumour cell line growth inhibition, 48 h
Remember, log10 of TGI, in µM.

Known log10 TGI results, listed for orientation:
> print(dat)
                                   molecule  measuredvalue
1  COc1ccc(-c2ccc(-c3ccc(C(=N)N)nc3)s2)cc1Cl           0.50
2  CCCCCc1nnc(NS(=O)(=O)c2ccc(NC(=O)OCC(C)C)cc2)s1           1.81
3   CCOC(=O)c1c(Br)c(-c2ccc(OC)cc2)c(Br)n1C           1.85
4  COC1=C(C)C(=O)c2c(c(CCCl)c3n2CCC3O)C1=O (configuration not stated)           0.06

[Q] Request: log10 TGI, test system SF-539 CNS, entry CSc1cc(-c2ccccn2)nc(-c2ccccn2)c1
[A] 0.78

====

System: MCF7 breast
assayComment: NCI tumour cell line growth inhibition, 48 h
observedProperty: TGI

Would you please look over these solved cases?
molecule	TGI
CCOC(=O)c1c(C)n(Cc2ccccc2)c2c1cc(O)c1[nH]c(Cc3ccccc3)nc12	> 53.1 µM
N[C@@H]1C(=O)N2C(C(=O)OC(c3ccccc3)c3ccccc3)=C(CCl)CS[C@H]12	> 100 µM
CCOC(=O)c1c(-c2ccc(Cl)cc2)c(C#N)c(=S)n(C2OC(COC(C)=O)C(OC(C)=O)C(OC(C)=O)C2OC(C)=O)c1-c1ccccc1 (configuration not stated)	> 100 µM
CCN1C(=O)CCCc2c1ccc(Nc1ncc(Cl)c(NC3[C@@H](C(N)=O)[C@@H]4C=C[C@H]3C4)n1)c2OC (some centres not stated)	6.7 µM
CCOC(=O)C[n+]1cccc(C2(c3cc4ccccc4[nH]3)OCCO2)c1	> 100 µM

# ---- query molecule ----
[Q] Form field: TGI recorded for Cc1ccc(C(NC(=O)c2ccccc2)c2ccc3cccnc3c2O)cc1 (configuration not stated) with MCF7 breast (enter value)
[A] > 47.3 µM
